Where these numbers come from: the DeepSol protein solubility set

assay: soluble on expression in E. coli; label from the status in PepcDB or PDB records
Measure: soluble on expression in E. coli

>>> reported_measurement("MISPGEAVLMDGGTTTLEVARQLAGKQLQVVTNSLPIANLLVNQPQIDLMLIGGFLFPKTGVALGKTAVESLKSVHVRRLIISVGGITEDGLYNSNMLLVETEQQMFEAAEEVIVVTDSTKFGHSALAYLCPLDRVDHIVVDDGITEEWKDVIHKAGIELTVVET")
"not soluble"
>>> reported_measurement("MGSDKIHHHHHHMIEPVSEDTILITLAPAIDDTLPARIASLVDSIRRAGFHWLVDMVPSYTTLMVVYDPVLVDFRQVTDKLRPIVHRLSTQGHTAELKSRLVELPVYYSAETGPDLQWLATESGLDCEEVIRRHSSVEYRVHALGFAPGFAFMGQVDPSIAAPRKTTPRKQVPAGSVGIANRQTAVYPQVSPGGWQLIGRCPTRLFDSTNLSLLKVGDRVRFTPISREAFLAAGGELIS")
"not soluble"
>>> reported_measurement("MEKIIITATAESIEQVKALLAAGVDRIYVGEANYGLRLPHNFSYDELRQIAKLVHDAGKELTVACNALMHQDMMDQIKPFLDLMIEIAVDYLVVGDAGVFYVNKRDGYNFKLIYDTSVFVTSSRQVNFWGQHGAVESVLAREIPSAELFTLAENLEFPAEVLVYGASVIHHSKRPLLENYYHFTKIDDEVSRERGLFLAEPGDASSHYSIYEDNHGTHIFINNDIDMMSKLGELYAHGLTHWKLDGIYCPGDDFVAITKLFIQAKTLLEAGQFTQEEAEKLDQAVHAHHPAGRGLDTGFYEFDPKTVK")
"not soluble"

* * *

assay: soluble on expression in E. coli; label from the status in PepcDB or PDB records
Measure: soluble on expression in E. coli

>>> reported_measurement("DIECPTCGRPMGIRTASTGVFLGCSGYALPPKERCKTTINLGDEEGIINVLEEDVETAALRAKKRCPICETAMDAYLIDDKRKMHVCGNNPNCEGYVVEYGEFKVKGYDGPVVECDKCGSDMVLKNGRFGKYMDCTSETCKNTRKILK")
"not soluble"
>>> reported_measurement("MSLTLKLLAEVAGEKVSRFDNKGDIWYDLISAVHKSIRGSNPDAALYWSARMIAAGCDPLYIARRLLAIASEDVGNADPRAMQVALSAWDCFTRVGPAEGERAIAQAIVYLACAPKSNAVYTAWKQALSDAHNLPEFEVPFHLRNAPTGLMKDLGYGEGYRYAHDEPGAYAAGEQYLPAEIDDRKYYQPTNRGLESKIAEKLDYLANLDANSPQKRYEEGHHHHHH")
"not soluble"
>>> reported_measurement("MGSDKIHHHHHHMNYTNEVAKMTCVAKGPNHGPAPIPEEGKWVSAKEIKDISGLTHGVGRCAPQQGACKLTLNVKEGIIQEALVETIGCSGMTHSAAMAAEILSGKTILEALNTDLVCDAINTAMRELFLQIVYGRTQTAFSEGGLPVGAGLEDLGKGHRSQVGTMYSSAAKGPRYLEMVEGYVTKTGLDENNEIIGYEFINFGKMMDMIKQGMDANEAMKKATGNYGRFADAVKVIDPREE")
"not soluble"

* * *

assay: soluble on expression in E. coli; label from the status in PepcDB or PDB records
Measure: soluble on expression in E. coli

>>> reported_measurement("MGSDKIHHHHHHMNFTHKNLQRSYMAERTMVILDGGMGRELQRSGAPFRQPEWSALALSEAPEAVVGVHAAFIDAGAQVITSNSYAVVPFHIGEERFAAEGRQLAHIAGQLARHAADSGAHPVRVAGSLPPLFGSYRPDLFQPERVAEVLTPLLQGLAPHVDLWLAETQSSVAEVRAIHSHLPADGRPFWVSFTLQDEEVDEVPRLRSGEPVAEAIEAAVGLGVAAVLFNCSQPEVIGAAIDVARSVIERHNAEIAIGAYANAFPPQPKEATANDGLDELREDLDPPGYLAWAKDWRARGASMVGGCCGIGPEHIAELKRNLA")
"not soluble"
>>> reported_measurement("MGSDKIHHHHHHMKIDTLGVQAFVAIADGGSFRQAADTLHVTQTAITQRLRKLESFLGVALVERTTRRTTLTEIGRRFLPQARRLLNELSDALTEIRETGLSQRGDVTIACVPTVGVQYLPRILRAFSGHRPHDRVKILDHASASVLQAVLRREAEFGISIAGDQHPELVSVPLTHDPYVLVCRDDHPLAKRRRIRWAALQPHPLIFAGEVSGNRGLLDGALKTSGVSLHSFYEVQRSSTALGLVAEGLGAAVVPKLAVQKNAYPMIRTIELVEPSVSRTLVLVKRKAAQLSPAAQALYDMIVERATPGR")
"not soluble"
>>> reported_measurement("MGYRIEMATRNPFDIDHKSKYLREAALEANLSHPETTPTMLTCPIDSGFLKDPVITPEGFVYNKSSILKWLETKKEDPQSRKPLTAKDLQPFPELLIIVNRFVETQTNYEKLKNRLVQNARVAARQKEYTEIPDIFLCPISKTLIKTPVITAQGKVYDQEALSNFLIATGNKDETGKKLSIDDVVVFDELYQQIKVYNFYRKREMQKNQIQPSVSSGFGFFSLNFLTSWLWGTEEKKEKTSSDMTY")
"not soluble"

* * *

assay: soluble on expression in E. coli; label from the status in PepcDB or PDB records
Measure: soluble on expression in E. coli

>>> reported_measurement("QDLLLSYKGKLKNDSIEGEFRQGRFGTMMSLYRGLDAAKPYRPQTPVPPFPYDVTDVKILHKTGGFTIAGTLTAPKDANKTKGTVILISGSGLQDRDETIFGHKPFAVLADQLTRHGYAVLRCDDRGFGESAGDASQATTDTLAGDIESELAYLRQHYPRLTDKVFLIGHSEGGIIAPMVARRVGGIAGLVLVGAPSVKGAEILLSQNAAMDEFATGQPQSQAKRAALEELIRQATAPGDTSDIRTRIESYCRSNASVLFPQAMTDEMKEQGIKLMTEQLYTPWMRHFLTYDPAPLLDVTSGEGSHPLPPTMAIYGGRDKQVLHEVNMSKMKSLLGIETGNTTNKVVYLPEVNHIMQPAEFGTPDEYAFLNRTVDTELMEIVCSFLDSL")
"not soluble"
>>> reported_measurement("MHIKPIIQGVVARSAHPYGCEQAVLQQIQYVKQANPIKSGPKRVLILGASSGFGLAARIALTFGGAQADTIGVSFERAPSETQTGSAGYYNNLFFKQHAEQAGRIAVNLEGDVFSVDMREQVIEAIETYFEGEVDLIIYSIASGMRRKPRSEKADPEFWRSAIKPIGEAVSGATLLLENDTWIETTLQPASEEEIEGTLRVMGGDDWENWIDTLINAESLAEGCKTIAFSYMGPDVTHPIYLDGTLGRAKIDLHQTSHALNLKLANFDGGAYAVVCKALVTKASVFIPGLSPYLLALYQVMKNKGTHEGCIEQMQRLFSDKLYGHSRIPLDSERLIRMDDWEMNPDTQVQVRERLQQMNASNFQQLGDYAGFKREFMQLNGFEFDQIDYSQSV")
"not soluble"
>>> reported_measurement("MNQAIQFPDREEWDENKKCVCFPALVNGMQLTCAISGESLAYRFTGDTPEQWLASFRQHRWDLEEEAENLIQEQSEDDQGWVWLP")
"not soluble"

* * *

experiment: soluble on expression in E. coli; label from the status in PepcDB or PDB records
Measure: soluble on expression in E. coli

Recorded soluble on expression in E. coli, per entry:
>>> reported_measurement("MGSDKIHHHHHHMTEGLTIGIDVGGTNLRFGVFRGNELLDSTRSEVDLREKCRQAPDPEGAAALVTTLLTEGIADLRRHHPNIARVGIAFPGFIDDDGVLLQSPNIPQLIQFDLQTAVGAACQLPVLVENDANAAGYGEFWEERQEHPELQNLLYVGLGTGVGGGWIHQGRPWRGDHGSAMEIGHIIVVPGGRRCGCGNQGCLEQYASARGVQSTYVELTGTAPDAMVIAQMAGDAHSEAASAFRMAGGYLGQVLAHVVKVTDVAVVRIGGGMSAAWDRFAPAMLQRLDADMIPALRGNVEVKRGNDDDLAGMRGAALLADQEFLHS")
"not soluble"
>>> reported_measurement("MNQHNTRLIRLPEVLHRTGYGKAWIYHLINQNRFPSPVKIGARSVAFIESEVDEWIQLTIENSRKHVA")
"soluble"
>>> reported_measurement("MGHHHHHHSHMPKNQEDSEEKGEKDEQTAKFLHKLAENGKDRGLPDCVVAQYEKNAWEATNSDEKYKSCEKCGMPPPPPIDGAKNSVVEEVCKNCETINEKPIGIESQILEKRRNEEILKRKEERKSLKRSAEESVTNSAPEKIQKKVHVKIMPRKCAPQILRRSLVPPPILTPKSAKKKLKLAENKEPDFLKALLNVTGNPV")
"not soluble"
>>> reported_measurement("MVFDRQMKRGQRDWAVRQPDFKAAQYLKEEIGWRVADKVFDLTKFNPLVLDIGCGVGHIAPHLIKENVGKIIQVDMSGGMAQSSAKCEDPEVIVERRTVDEETLDGFHENQFDLLLTSMSAHWINHLPQWMRKCHDIVKPDCPFIGSMLAEDTLYELRCSLQLAELERIGGVSSHISPFVKTQDIGGLLSSAGFDMITLDSDEIQVGYPNMFALMYDLQLMGESHCTHRRNPTIRRDVLVAAEAIYQSMYSSDGKYPATFKIVSFIGWKPGPNMPKAAKRGSQTVSLKDIGKIVEDPEMMRKMSEKDGVDKKK")
"not soluble"
>>> reported_measurement("MLKIIPGATGYFNKTLNSNQFDNEDAIKDKLDNRGSIKGKLNNIYGKSIDYAALRHRDIIIAKIDLFIQRITHNLWHARKKMCFLEHHHHHH")
"not soluble"
>>> reported_measurement("TKDFSWTTAFNLSHNKNKILKLADLPWFVDGRYVRKEGYPFNTIYLREYAGVDPETGSALYYDNQQDENGNYTKNKVTDPGQASPIPLKDITPTISGGFMNTFNYKFIDLSFNLSYSFGGYSYDNASYILQDDGYSVISNKSTEQRRRWQKPGDITDVPRFVYGNKKGGNYNSSRAIHSTDHIRLKSLILGLNAPKAWLQKLGIGNARIYFSGTNLLTWAAYDQYDPEMSGVVGFYTPPLKTYAFGLELKF")
"not soluble"

GET /value?item= MKVISLKKDSFNKGGAVITLLPEDKEDLFTVYQIVDKDDELIFKKKFTSKLDEAGKKKSTDLVKLKIKVISEDFDMKDEYLKYKGVTVTDESGASNVDIPVGKYLSFTLDYVYPFTIIKQNFNKFMQKLLNEACNIEYKSDTAAVVLQEGIAHVCLVTSSSTILKQKIEYSMPKKKRTTDVLKFDEKTEKFYKAIYSAMKKDLNFDKLKTIILCSPGFYAKILMDKIFQYAEEEHNKKILDNKGMFFIAHCSTGYLQGINEVLKNPLYASKLQDTKYSKEIMVMDEFLLHLNKDDDKAWYGEKEVVKAAEYGAISYLLLTDKVLHSDNIAQREEYLKLMDSVESNGGKALVLSTLHSLGEELDQLTGIACILKYPLPDLDEDDGEE &field=soluble on expression in E. coli returns soluble

GET /value?item= SLSEVEIEEVRLNPDEPQYTMDGLDGRRFDEQGYLKEHLSSKGAKQFPESSDIHFDSPHLVFFQEGRLLYEVGSDEAVYHTENKQVLFKNNVVLTKTADGKRQAGKVEAEKLHVDTESQYAQTDTPVSFQYGASHGQAGGMTYDHKTGMLNFSSKVKATIYDTKDM &field=soluble on expression in E. coli returns not soluble

GET /value?item= MGSDKIHHHHHHMEVQLPKIKTVRVMLAGMTAQQESVFKMAFKMHNTTRYETVSPSDGSAVPDLVLADTDAEGGFELWKELAGRYKAIPVAVCSEKVPDSEVPYLPKPIRFETLFPMLRKLLQGENVYGKSFIAPADRSAKNNGNVQRTVTIRQFNPNKGLLGALRFAEKNRQDIAILHGNKPVLNCFPLDTTGFADRKCVKTRRIVQRRKFAGQLQDCSR &field=soluble on expression in E. coli returns not soluble

GET /value?item= SLRLKLSLTPKQDFSFDKINKHTIQGFIYSLLKDTEFGEMHNQPRFKFWCFSDIFPPNDFVKGEDKYLLISSPREEFINVLYERLDNLEEVNLNNFKFEVSELKKFDLKVKNKFITGSPIVLYKDKDRGEYIKFYDDDFDLMFFVQRLQDNAVKKYKAFYNEEPVLNGFIFDRISPRVRNGRVDVYVRIAKKGREFLVVGTTWKLLEKIKIRKEERKFYKFIMDCGLGEKNSLGFGFINPIK &field=soluble on expression in E. coli returns not soluble

GET /value?item= MQLFDLSLEELKKYKPKKTARPDFSDFWKKSLEELRQVEAEPTLESYDYPVKGVKVYRLTYQSFGHSKIEGFYAVPDQTGPHPALVRFHGYNASYDGGIHDIVNWALHGYATFGMLVRGQGGSEDTSVTPGGHALGWMTKGILSKDTYYYRGVYLDAVRALEVIQSFPEVDEHRIGVIGGAQGGALAIAAAALSDIPKVVVADYPYLSNFERAVDVALEQPYLEINSYFRRNSDPKVEEKAFETLSYFDLINLAGWVKQPTLMAIGLIDKITPPSTVFAAYNHLETDKDLKVYRYFGHEFIPAFQTEKLSFLQKHLLLST &field=soluble on expression in E. coli returns soluble

GET /value?item= IGDLSYSVSGNIATNNNEIVTLAGSDNMIQNGGDVVRYILKEGEAIGSYYGLETDGLYTQEEIDAGHYYKYGRKPNAGDIKYVPQRENVEWGDDITDDDRTIIGKDVPDFTYGININLQWKNFELSAFGQGVSGTSVAFESEQVFAFMLNSNPRKYHLSRWNEDNPNPNAACPRLYGGNYYDEYNKHFSDYQLFDADYFRIKTISLGYMVPKDAVTRWGLSSLKFFLTGENLFTFRADKDMKDFDPESSTGRGISAFGAKSVAFGVNVSF &field=soluble on expression in E. coli returns not soluble
